Provide the recorded Relative cell viability (%) for the entries that follow.
System: HT29
Test Settings: 72 h, relative to DMSO; 10 µM
Where a name gives a salt, the structure may show the parent alone.
Numbers only, in %.

{"Molecule": "O=c1[nH]c(=O)n(C2CCCO2)cc1F (stereo not shown) [FT-207 (NSC 148958)]", "Relative cell viability (%) / %": 74.3}
{"Molecule": "COCCCC/C(=N\\OCCN)c1ccc(C(F)(F)F)cc1 [Fluvoxamine maleate]", "Relative cell viability (%) / %": 72.74}
{"Molecule": "N#C/C(=C1/SC[C@@H](c2ccc(Cl)cc2Cl)S1)n1ccnc1 [Luliconazole]", "Relative cell viability (%) / %": 76.67}

For each of the items listed, what is its Relative cell viability (%)?
1. CCN(CCCc1ccccc1)CCCc1ccccc1 [Alverine Citrate]
2. CC(C)=CCC/C(C)=C/CC/C(C)=C/CSc1ccccc1C(=O)O [Salirasib]
3. CCN1CCCC1CNC(=O)c1cc(S(=O)(=O)CC)c(N)cc1OC (stereo not shown) [Amisulpride]
4. NC(=O)NO [Hydroxyurea]
5. CC[C@@H](C(N)=O)N1CCCC1=O [Levetiracetam]
6. CCN(CC)CCNC(=O)c1ccc(N)cc1 [Procainamide HCl]
7. CN(CCOc1ccc(CC2SC(=O)NC2=O)cc1)c1ccccn1 (stereo not shown) [Rosiglitazone HCl]

Result:
78.16
84.19
77.41
70.34
78.97
73.94
114.3
